From: patent US20250236616A1

Consider the following molecules; for each one, report its minimal effective concentration.
System: IL-1β
Method: Whole bovine blood assay, LPS-induced IL-1β (inhibition / overstimulation)
Format: cell-based
Conditions used: drug concentration giving overstimulation (OS) of LPS-induced IL-1β, top concentration 250 μM
Give bare numbers, in µM.

[
  {
    "Molecule": "CC[C@H]1OC(=O)[C@H](C)[C@@H](O[C@H]2C[C@@](C)(OC)[C@](O)(CN3CCCCC3)[C@H](C)O2)[C@H](C)[C@@H](O[C@@H]2O[C@H](C)C[C@H](N(C)S(=O)(=O)c3ccccc3)[C@H]2Oc2ccccc2)[C@](C)(O)C[C@@H](C)CN[C@H](C)[C@@H](O)[C@]1(C)O",
    "Value observed": 6
  }
]

Here is the next item to consider.
Recorded minimal effective concentration for CCCNC[C@@]1(O)[C@@H](C)OC(O[C@H]2[C@H](C)[C@@H](O[C@@H]3O[C@H](C)C[C@H](N(C)S(=O)(=O)c4ccccc4)[C@H]3Oc3ccccn3)[C@](C)(O)C[C@@H](C)CN[C@H](C)[C@@H](O)[C@](C)(O)[C@@H](CC)OC(=O)[C@@H]2C)C[C@]1(C)OC (stereo partly drawn) , please?
6

###

Tested on: IL-6
Method: Whole bovine blood assay, LPS-induced IL-6
Type: cell-based
Conditions used: Bos taurus, fresh whole bovine blood, LPS stimulant; top drug concentration 250 μM
Consider the following compounds; for each one, report its pIC50.
One number for each entry, as −log10 of the molar value.

Below: 2 compounds and their reported pIC50.
[
  {
    "Compound": "CCCNC[C@]1(O)[C@H](C)OC(O[C@H]2[C@H](C)[C@@H](O[C@@H]3O[C@H](C)C[C@H](N(C)S(=O)(=O)c4ccc(-c5cnco5)s4)[C@H]3Oc3ccc(OC)cc3)[C@](C)(O)C[C@@H](C)CN[C@H](C)[C@@H](O)[C@](C)(O)[C@@H](CC)OC(=O)[C@@H]2C)C[C@@]1(C)OC (stereo partly drawn) [Example B-120]",
    "pIC50": 5.22
  },
  {
    "Compound": "CCCNC[C@]1(O)[C@H](C)O[C@@H](O[C@H]2[C@H](C)[C@@H](O[C@@H]3O[C@H](C)C[C@H](N(C)S(=O)(=O)N(C)C4CCCCC4)[C@H]3O)[C@](C)(O)C[C@@H](C)CN[C@H](C)[C@@H](O)[C@](C)(O)[C@@H](CC)OC(=O)[C@@H]2C)C[C@@]1(C)OC [Example B-49]",
    "pIC50": 4.80
  }
]

Recorded pIC50 for CCCNC[C@]1(O)[C@H](C)O[C@@H](O[C@H]2[C@H](C)[C@@H](O[C@@H]3O[C@H](C)C[C@H](N(Cc4ccc(OC)cc4)S(=O)(=O)c4ccccc4)[C@H]3O)[C@](C)(O)C[C@@H](C)CN[C@H](C)[C@@H](O)[C@](C)(O)[C@@H](CC)OC(=O)[C@@H]2C)C[C@@]1(C)OC [Example B-148] , please?
5.40

###

Test system: P. multocida 46572
Method: In vivo mouse lung infection challenge model (murine efficacy), survival
Parameters: species or system CD-1 female mice
Conditions used: P. multocida 46572 intranasal challenge; 20 mg/kg subcutaneous; harmonized relative to vehicle (−) and M9 (+) controls
Output Yes for % Survival not less than 40%; output No otherwise.

[
  {
    "Molecule": "CC[C@H]1OC(=O)[C@H](C)[C@@H](O[C@H]2C[C@@](C)(OC)[C@](O)(CNCCCN3CCCCC3)[C@H](C)O2)[C@H](C)[C@@H](O[C@@H]2O[C@H](C)C[C@H](N(C)S(=O)(=O)c3ccc(Cl)cc3)[C@H]2O)[C@](C)(O)C[C@@H](C)CN[C@H](C)[C@@H](O)[C@]1(C)O",
    "Tested system": "P. multocida 46572",
    "Classification": "No"
  }
]

Is it the case that CCCNC[C@]1(O)[C@H](C)O[C@@H](O[C@H]2[C@H](C)[C@@H](O[C@@H]3O[C@H](C)C[C@H](N(C)S(=O)(=O)c4ccc(C)cc4)[C@H]3O)[C@](C)(O)C[C@@H](C)CN[C@H](C)[C@@H](O)[C@](C)(O)[C@@H](CC)OC(=O)[C@@H]2C)C[C@@]1(C)OC has % Survival reaching or exceeding 40%?
No

Is it the case that CC[C@H]1OC(=O)[C@H](C)[C@@H](O[C@H]2C[C@@](C)(OC)[C@](O)(CN3CCCCC3)[C@H](C)O2)[C@H](C)[C@@H](O[C@@H]2O[C@H](C)C[C@H](N(C)S(=O)(=O)Nc3ccc(C(F)(F)F)cc3)[C@H]2O)[C@](C)(O)C[C@@H](C)CN[C@H](C)[C@@H](O)[C@]1(C)O has % Survival reaching or exceeding 40%?
Yes

Is it the case that CCCNC[C@@]1(O)[C@@H](C)OC(O[C@H]2[C@H](C)[C@@H](O[C@@H]3O[C@H](C)C[C@H](N(C)S(=O)(=O)c4ccccc4)[C@H]3Oc3ccccn3)[C@](C)(O)C[C@@H](C)CN[C@H](C)[C@@H](O)[C@](C)(O)[C@@H](CC)OC(=O)[C@@H]2C)C[C@]1(C)OC (stereo partly shown) has % Survival reaching or exceeding 40%?
Yes

Is it the case that CCCNC[C@]1(O)[C@H](C)O[C@@H](O[C@H]2[C@H](C)[C@@H](O[C@@H]3O[C@H](C)C[C@H](N(C)S(=O)(=O)c4ccc(C(F)(F)F)cc4)[C@H]3O)[C@](C)(O)C[C@@H](C)CN[C@H](C)[C@@H](O)[C@](C)(O)[C@@H](CC)OC(=O)[C@@H]2C)C[C@@]1(C)OC has % Survival reaching or exceeding 40%?
No

Is it the case that CCCNC[C@]1(O)[C@H](C)O[C@@H](O[C@H]2[C@H](C)[C@@H](O[C@@H]3O[C@H](C)C[C@H](N(Cc4ccc(OC)cc4)S(=O)(=O)c4ccccc4)[C@H]3O)[C@](C)(O)C[C@@H](C)CN[C@H](C)[C@@H](O)[C@](C)(O)[C@@H](CC)OC(=O)[C@@H]2C)C[C@@]1(C)OC has % Survival reaching or exceeding 40%?
Yes

Is it the case that CCCNC[C@]1(O)[C@H](C)O[C@@H](O[C@H]2[C@H](C)[C@@H](O[C@@H]3O[C@H](C)C[C@H](N(C)S(=O)(=O)N(C)C4CCCCC4)[C@H]3O)[C@](C)(O)C[C@@H](C)CN[C@H](C)[C@@H](O)[C@](C)(O)[C@@H](CC)OC(=O)[C@@H]2C)C[C@@]1(C)OC has % Survival reaching or exceeding 40%?
Yes

###

Consider the following compounds; for each one, report its minimal effective concentration.
Tested on: IL-1β
Method: Whole bovine blood assay, LPS-induced IL-1β (inhibition / overstimulation)
Assay type: cell-based
Conditions used: drug concentration giving overstimulation (OS) of LPS-induced IL-1β, top concentration 250 μM
Numbers only, in µM.

Below: 6 compounds and their reported minimal effective concentration.
[
  {
    "Compound": "CC[C@H]1OC(=O)[C@H](C)[C@@H](O[C@H]2C[C@@](C)(OC)[C@](O)(CN3CCN(S(C)(=O)=O)CC3)[C@H](C)O2)[C@H](C)[C@@H](O[C@@H]2O[C@H](C)C[C@H](N(C)S(=O)(=O)Nc3ccc(C(F)(F)F)cc3)[C@H]2O)[C@](C)(O)C[C@@H](C)CN[C@H](C)[C@@H](O)[C@]1(C)O [Example C-15]",
    "Tested system": "IL-1β",
    "Units": "µM",
    "minimal effective concentration": 16
  },
  {
    "Compound": "CC[C@H]1OC(=O)[C@H](C)[C@@H](O)[C@H](C)[C@@H](O[C@@H]2O[C@H](C)C[C@H](N(C)S(=O)(=O)c3ccccc3)[C@H]2Oc2ccc(F)cc2)[C@](C)(O)C[C@@H](C)CN[C@H](C)[C@@H](O)[C@]1(C)O [Example A-23]",
    "Tested system": "IL-1β",
    "Units": "µM",
    "minimal effective concentration": 16
  },
  {
    "Compound": "CCCNC[C@]1(O)[C@H](C)O[C@@H](O[C@H]2[C@H](C)[C@@H](O[C@@H]3O[C@H](C)C[C@H](N(Cc4ccc(OC)cc4)S(=O)(=O)c4nccn4C)[C@H]3O)[C@](C)(O)C[C@@H](C)CN[C@H](C)[C@@H](O)[C@](C)(O)[C@@H](CC)OC(=O)[C@@H]2C)C[C@@]1(C)OC [Example B-146]",
    "Tested system": "IL-1β",
    "Units": "µM",
    "minimal effective concentration": 2
  },
  {
    "Compound": "CCCNC[C@]1(O)[C@H](C)O[C@@H](O[C@H]2[C@H](C)[C@@H](O[C@@H]3O[C@H](C)C[C@H](N(C)S(=O)(=O)c4cccnc4Cl)[C@H]3Oc3ccc(OC)cc3)[C@](C)(O)C[C@@H](C)CN[C@H](C)[C@@H](O)[C@](C)(O)[C@@H](CC)OC(=O)[C@@H]2C)C[C@@]1(C)OC [Example B-124]",
    "Tested system": "IL-1β",
    "Units": "µM",
    "minimal effective concentration": 6
  },
  {
    "Compound": "CCCNC[C@]1(O)[C@H](C)O[C@@H](O[C@H]2[C@H](C)[C@@H](O[C@@H]3O[C@H](C)C[C@H](N(C)S(=O)(=O)c4ccccc4)[C@H]3Oc3cccc(CO)c3)[C@](C)(O)C[C@@H](C)CN[C@H](C)[C@@H](O)[C@](C)(O)[C@@H](CC)OC(=O)[C@@H]2C)C[C@@]1(C)OC [Example B-133]",
    "Tested system": "IL-1β",
    "Units": "µM",
    "minimal effective concentration": 16
  },
  {
    "Compound": "CCCNC[C@]1(O)[C@H](C)O[C@@H](O[C@H]2[C@H](C)[C@@H](O[C@@H]3O[C@H](C)C[C@H](N(C)S(=O)(=O)c4cnc(Cl)c(Br)c4)[C@H]3Oc3ccc(OC)cc3)[C@](C)(O)C[C@@H](C)CN[C@H](C)[C@@H](O)[C@](C)(O)[C@@H](CC)OC(=O)[C@@H]2C)C[C@@]1(C)OC [Example B-117]",
    "Tested system": "IL-1β",
    "Units": "µM",
    "minimal effective concentration": 16
  }
]

Recorded minimal effective concentration for CC[C@H]1OC(=O)[C@H](C)[C@@H](O[C@H]2C[C@@](C)(OC)[C@](O)(CN3CCN(C)CC3)[C@H](C)O2)[C@H](C)[C@@H](O[C@@H]2O[C@H](C)C[C@H](N(C)S(=O)(=O)c3ccc(Cl)cc3)[C@H]2O)[C@](C)(O)C[C@@H](C)CN[C@H](C)[C@@H](O)[C@]1(C)O [Example C-7] , please?
6
